Each record here notes measured TGI.
# System: M19-MEL melanoma
# assay comment: NCI tumour cell line growth inhibition, 48 h

Check out these entries, answers already filled in.
{"compound": "CSC(=S)N/N=C/c1nccc2ccccc12", "TGI": "> 33.6 µM"}
{"compound": "O=c1oc2ccccc2[n+]([O-])c1-c1ccccc1", "TGI": "> 100 µM"}
{"compound": "COc1ccc(CN2CCC/C=C/CC(Cl)(Cl)C2=O)cc1", "TGI": "95.2 µM"}
{"compound": "C=CC(OCC)(OCC)OCC", "TGI": "> 100 µM"}
{"compound": "c1ccc(N2N=C(c3ccco3)CC2c2ccco2)cc1 (configuration not stated)", "TGI": "> 100 µM"}
{"compound": "CSC1=Nc2ccccc2N=C(c2ccc(Cl)cc2)C1", "TGI": "> 100 µM"}
{"compound": "CCCSc1nc(-c2ccc(OC)cc2)c(C#N)c(=O)n1C1OC(COC(C)=O)C(OC(C)=O)C(OC(C)=O)C1OC(C)=O (configuration not stated)", "TGI": "> 100 µM"}
{"compound": "COc1ccc(/C(=N\\NC(=S)NN)C(c2ccc(OC)cc2)C2C(=O)Oc3ccccc32)cc1 (configuration not stated)", "TGI": "> 100 µM"}

Q: Which TGI value is on record for COc1ccc2[nH]c3c(c2c1)[C@H](C)C[C@@H]1C(=O)N(c2ccccc2)C(=O)[C@H]31 ?
A: > 100 µM

Q: Which TGI value is on record for CN(C)CCC(=O)/C=C\c1ccccc1 ?
A: 37.4 µM

Q: Which TGI value is on record for CCOC(=O)C(NC(=O)c1nc[nH]c1[N+](=O)[O-])C(C)C (configuration not stated) ?
A: > 100 µM

Q: Which TGI value is on record for CC(=O)OCC1OC(N2C(=O)C(=O)c3ccccc32)C(OC(C)=O)C(OC(C)=O)C1OC(C)=O (configuration not stated) ?
A: > 100 µM

---

Each record here notes measured TGI.
# System: PC-3 prostate
# assay comment: NCI tumour cell line growth inhibition, 48 h
Report the value in µM with no unit label.

Check out these entries, answers already filled in.
{"compound": "COc1c(O)c2c(=O)cc(OC)c3c4c(OC)cc(=O)c5c(O)c(OC)c6c(c(c1C(C(C)O)C6C(C)O)c23)c54 (configuration not stated)", "result unit": "µM", "TGI": 1.85}
{"compound": "O=c1oc2ccc(I)cc2c(=O)n1-c1ccc(Cl)cc1F", "result unit": "µM", "TGI": 7.11}

Q: Observed TGI on PC-3 prostate for c1ccc2[nH]c(-c3ccc(Nc4nc(N5CCCCC5)nc(N5CCOCC5)n4)cc3)nc2c1 , please.
A: 9.13

---

# Tested on: MDA-MB-231 breast
# assay comment: NCI tumour cell line growth inhibition, 48 h
Each record here notes measured TGI.

Check out these entries, answers already filled in.
{"molecule": "COC(=O)/C(C#N)=C(/NCCN)Nc1ccccc1", "TGI": "> 100 µM"}
{"molecule": "O=c1[nH]c(Nc2cccc(CO)c2)nc2nc[nH]c12", "TGI": "> 100 µM"}
{"molecule": "O=c1[nH]c(=O)n(C2CC(O)C(CO)O2)cc1OCc1ccccc1 (stereo unspecified)", "TGI": "> 100 µM"}
{"molecule": "COC1CC(OC2CCC3(C)C(=CCC4C3C(OC(C)=O)C(OC(=O)CC(C)C)C3(C)C(C(C)=O)CCC43O)C2)OC(C)C1OC1CC(OC)C(OC2CC(OC)C(OC3OC(C)C(OC4OC(CO)C(O)C(O)C4O)C(OC)C3O)C(C)O2)C(C)O1 (stereo unspecified)", "TGI": "> 75 µM"}
{"molecule": "COc1cc2c(cc1Cc1c(F)cccc1Cl)nc(-c1c(F)cccc1Cl)n2Cc1c(F)cccc1Cl", "TGI": "> 100 µM"}

Q: Observed TGI on MDA-MB-231 breast for O=C(O)c1ccccc1/C=N/N=C1c2ccccc2-c2ccccc21 , please.
A: > 100 µM

Origin of values: PubChem BioAssay (NCI)
